ASSAY METHOD TEXT: toxicity test (LD50)
EXPERIMENTAL CONDITIONS: mouse, in vivo, iv, mice; administered intravenously
Catalogue of LD50 readings, one per entry.

Example entries and their recorded answers appear below.
CCCCCCCCCCCC(=O)N[C@@H](Cc1c[nH]c2ccccc12)C(=O)N[C@@H](CC(N)=O)C(=O)N[C@@H](CC(=O)O)C(=O)N[C@@H]1C(=O)NCC(=O)N[C@@H](CCCN)C(=O)N[C@@H](CC(=O)O)C(=O)N[C@H](C)C(=O)N[C@@H](CC(=O)O)C(=O)NCC(=O)N[C@H](CO)C(=O)N[C@@H]([C@H](C)CC(=O)O)C(=O)N[C@@H](CC(=O)c2ccccc2N)C(=O)O[C@@H]1C [Compound 6]	144 mg/kg
CCCCCCCCCC(=O)N[C@@H](Cc1c[nH]c2ccccc12)C(=O)N[C@H](CC(N)=O)C(=O)N[C@@H](CC(=O)O)C(=O)N[C@@H]1C(=O)NCC(=O)N[C@@H](CCCN)C(=O)N[C@@H](CC(=O)O)C(=O)N[C@H](C)C(=O)N[C@@H](CC(=O)O)C(=O)NCC(=O)N[C@H](CO)C(=O)N[C@@H]([C@H](C)CC(=O)O)C(=O)N[C@@H](CC(=O)c2ccccc2N)C(=O)O[C@@H]1C [Compound 4]	> 300 mg/kg
CCCCCCCCCCCCN[C@@H](Cc1c[nH]c2ccccc12)C(=O)N[C@@H](CC(N)=O)C(=O)N[C@@H](CC(=O)O)C(=O)N[C@@H]1C(=O)NCC(=O)N[C@@H](CCCN)C(=O)N[C@@H](CC(=O)O)C(=O)N[C@H](C)C(=O)N[C@@H](CC(=O)O)C(=O)NCC(=O)N[C@H](CO)C(=O)N[C@@H]([C@H](C)CC(=O)O)C(=O)N[C@@H](CC(=O)c2ccccc2N)C(=O)O[C@@H]1C [Compound 22, NTrp -(n-dodecyl)-A-21978C nucleus]	> 300 mg/kg
CCC(C)CCCCCCC(=O)N[C@@H](Cc1c[nH]c2ccccc12)C(=O)N[C@@H](CC(N)=O)C(=O)N[C@@H](CC(=O)O)C(=O)N[C@@H]1C(=O)NCC(=O)N[C@@H](CCCNC(=O)CCC(=O)O)C(=O)N[C@@H](CC(=O)O)C(=O)N[C@H](C)C(=O)N[C@@H](CC(=O)O)C(=O)NCC(=O)N[C@H](CO)C(=O)N[C@@H]([C@H](C)CC(=O)O)C(=O)N[C@@H](CC(=O)c2ccccc2N)C(=O)O[C@@H]1C (some centres unmarked) [Compound 15]	450 mg/kg

Here is the next item to consider.
Need LD50 of CCCCCCCCCCCCC(=O)N[C@@H](Cc1c[nH]c2ccccc12)C(=O)N[C@@H](CC(N)=O)C(=O)N[C@@H](CC(=O)O)C(=O)N[C@@H]1C(=O)NCC(=O)N[C@@H](CCCN)C(=O)N[C@@H](CC(=O)O)C(=O)N[C@H](C)C(=O)N[C@@H](CC(=O)O)C(=O)NCC(=O)N[C@H](CO)C(=O)N[C@@H]([C@H](C)CC(=O)O)C(=O)N[C@@H](CC(=O)c2ccccc2N)C(=O)O[C@@H]1C [Compound 7] , thanks.
112 mg/kg
